Measurement description: qHTS assay for small molecule agonists of the p53 signaling pathway - cell viability (AID 651633); note: nearly all actives have a fitted effect of over 30% in size
Run parameters: p53RE-bla HCT-116 viability, ATP luminescence, 16 h; series mostly up to 83.3 µM
Inconclusive results are not listed. Active and inactive are the calls of the source. Calls come from the whole dose curve.
Pick one and only one: 1 for active, 0 for inactive

Compound	Assigned class
CCN(CC)Cc1nccn1-c1ccc([N+](=O)[O-])cc1C(=O)c1ccccc1Cl	0
OCC(Br)CBr (configuration not stated)	0
C[C@H]1[C@H](c2ccc(Cl)cc2)SC(=O)N1C(=O)NC1CCCCC1	0
ClCBr	0

Given `Fc1ccc(C(OCCN2CCN(CCCc3ccccc3)CC2)c2ccc(F)cc2)cc1` , state the outcome it received in this test.
1

Please share the test call associated with `CC(C)(C)c1ccc(OP(=O)(Oc2ccccc2)Oc2ccccc2)cc1` .
0

What was the test verdict on `Clc1ccc(C2(Cn3cncn3)OCCO2)c(Cl)c1` ?
0

###

Measurement description: Human pregnane X receptor (PXR) small molecule agonists, qHTS cell viability counter screen (AID 1346977); note: nearly all actives have a fitted effect of over 50% in size
Run parameters: PXR-Luc HepG2 viability, CellTiter-Fluor, 24 h; series mostly up to 92.4 µM
Inconclusive results are not listed. Activity calls are given as the source filed them. The call rests on the fitted dose curve; in most records, active means well fitted cell-killing curve with a large enough effect in the repeat runs; inconclusive means weak or mixed curves, or effect the other way; inactive means flat fitted curve, though single readings scatter.
Response enum: 1 (yes) = active, 0 (no) = inactive

Solved entries:
Compound	Assigned class
O=C(O)[C@H](O)[C@@H](O)C(=O)O	0 (no)
Cc1ccc([N+](=O)[O-])[c]2c1[O][Hg]2	1 (yes)
CN1C(=O)[C@@H](NC(=O)c2cc3ccccc3[nH]2)N=C(c2ccccc2)c2ccccc21	0 (no)
CC(C)N(C(=O)CCl)c1ccccc1	1 (yes)
COCCC#N	0 (no)
S=C=Nc1ccccc1	0 (no)
Cc1c([N+](=O)[O-])cc2c(c1[N+](=O)[O-])C(C)(C)CC2(C)C	0 (no)
C[C@]12C/C(=C/O)C(=O)C[C@@H]1CC[C@@H]1[C@@H]2CC[C@@]2(C)[C@H]1CC[C@]2(C)O	0 (no)

Here's the next entry for you.
Identify the outcome logged in this assay for the compound shown: `CCCCc1ccccc1`
0 (no)

###

Measurement description: A CellTox Green Cytotoxicity Assay to monitor cytotoxicity in HepG2 cells - 16 hour (AID 1224876); note: nearly all actives have a fitted effect of over 45% in size
Run parameters: CellTox Green fluorescence; series mostly up to 76.8 µM
Source text: National Center for Advancing Translational Sciences [NCATS] NIH Chemical Genomics Center [NCGC] U.S. Environmental Protection Agency [EPA] National Institutes of Environmental Health Sciences [NIEHS] National Toxicology Program [NTP] Cell-based models are critical for drug discovery. […] Viable cells produce no appreciable increases in fluorescence. Therefore, the fluorescence signal produced by the binding interaction with dead cell DNA is proportional to cytotoxicity. […]
Inconclusive results are not listed. Activity calls are given as the source filed them. The call rests on the fitted dose curve; in most records, active means well fitted activation curve with a large enough effect in the repeat runs; inconclusive means weak or mixed curves; inactive means flat fitted curve, though single readings scatter.
Give one outcome, nothing more. List: true (active), false (inactive)

# count of solved cases: 3
Compound	Assigned class
CCC(OC(C)=O)C(CC(C)NC)(c1ccccc1)c1ccccc1 (configuration not stated)	true
Cc1ccc(C)c2ccccc12	false
CC(Cc1ccc2c(c1)OCO2)NO (configuration not stated)	false

Which outcome did this test record for the compound `Nc1ccc(N=Nc2ccccc2)cc1` ?
false

###

Test target: Thyrotropin-releasing hormone receptor (Homo sapiens) (UniProt P34981)
Sequence (P34981 whole entry, looked up): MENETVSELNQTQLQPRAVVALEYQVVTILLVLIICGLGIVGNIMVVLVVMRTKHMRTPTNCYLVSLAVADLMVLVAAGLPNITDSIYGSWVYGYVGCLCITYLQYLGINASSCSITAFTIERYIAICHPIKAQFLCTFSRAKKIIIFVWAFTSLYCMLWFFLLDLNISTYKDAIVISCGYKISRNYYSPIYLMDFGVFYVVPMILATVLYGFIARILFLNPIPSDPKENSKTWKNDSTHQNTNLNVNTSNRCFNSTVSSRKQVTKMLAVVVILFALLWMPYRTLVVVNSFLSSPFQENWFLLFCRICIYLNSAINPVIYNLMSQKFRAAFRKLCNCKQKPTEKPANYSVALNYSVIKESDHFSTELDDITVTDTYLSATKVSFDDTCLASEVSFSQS
Measurement description: qHTS assay to identify small molecule agonists of the thyrotropin-releasing hormone receptor (TRHR) signaling pathway (AID 1346891); note: potency is the fitted concentration of half-maximal effect
Run parameters: TRHR-HEK293 calcium fluorescence, agonist mode; series mostly up to 57.6 µM
Active and inactive are the calls of the source. Calls follow the shape of the full dose curve.
Measurement label: Potency

Example entries begin here.
Molecule	Potency
[F][Sn]([c]1ccccc1)([c]1ccccc1)[c]1ccccc1	4.36 µM (active)
Fc1ccc(C(OCCN2CCN(CCCc3ccccc3)CC2)c2ccc(F)cc2)cc1	inactive
NC1CCC(CC2CCC(N)CC2)CC1 (stereo unspecified)	inactive
CN1C(=O)[C@@H](NC(=O)c2cc3ccccc3[nH]2)N=C(c2ccccc2)c2ccccc21	inactive
CCNS(=O)(=O)C(F)(F)C(F)(F)C(F)(F)C(F)(F)C(F)(F)C(F)(F)C(F)(F)C(F)(F)F	inactive

With those in mind, consider the next molecule.
Which Potency value belongs to `ClCBr` ?
inactive

###

Measurement description: qHTS assay for identifying genotoxic compounds that show differential cytotoxicity against isogenic chicken DT40 cell lines with known DNA damage response pathways - Rad54/Ku70 mutant cell line (AID 743015); note: nearly all actives have a fitted effect of over 60% in size
Run parameters: DT40 Rad54/Ku70 mutant viability, CellTiter-Glo, 40 h; series mostly up to 66.8 µM
Results filed as inconclusive are left out. The source made the active and inactive calls. Calls follow the shape of the dose curve; as a rule, active = well fitted cell-killing curve with a large enough effect in the repeat runs; inconclusive = weak or mixed curves; inactive = no such curve, though single readings can be large or run the other way.
Hello, when you answer, please use one of the following outcomes: 1 = active, -1 = inactive

Previously resolved entries follow.
Molecule	Assigned class
CC(C)Br	-1
Oc1cccc(Cl)c1Cl	-1
CC(Cc1ccc2c(c1)OCO2)NO (centres undefined)	-1
Cc1cccc(Cc2cnc[nH]2)c1C	-1
O=[N+]([O-])c1cccc2cccc([N+](=O)[O-])c12	1
CC(C)[C@@H](Nc1ccc(C(F)(F)F)cc1Cl)C(=O)OC(C#N)c1cccc(Oc2ccccc2)c1 (some centres undefined)	-1
NC(=O)C(Cl)Cl	-1
OCC(Br)CBr (centres undefined)	-1

So what was the verdict on CC(C)=CC1C(C(=O)OC(C#N)c2cccc(Oc3ccccc3)c2)C1(C)C (centres undefined) in this test?
-1

Lab log entry: `Cc1cnc2c(C(=O)O)c(Cl)ccc2c1` — outcome as called in the assay?
-1

Entry `Brc1ccc(Oc2ccc(Br)cc2Br)c(Br)c1` : call = ?
-1

Outcome logged for CCC1COC(Cn2cncn2)(c2ccc(Cl)cc2Cl)O1 (centres undefined) in this assay:
1

Please indicate how the test categorized `CCC1(CC)C(=O)N=C(O)NC1=O` .
-1

Per the assay record, what outcome was assigned to CC(Cl)CCl (centres undefined) ?
-1

###

Measurement description: Caspase-3/7 induction in CHO-K1 cells by small molecules, qHTS cell viability counter screen (AID 1346979); note: nearly all actives have a fitted effect of over 35% in size
Run parameters: CellTiter-Fluor fluorescence, 17 h; series mostly up to 92.4 µM
Results filed as inconclusive are left out. Calls of active or inactive are those of the source. The call rests on the fitted dose curve; in most records, active means well fitted cell-killing curve with a large enough effect in the repeat runs; inconclusive means weak or mixed curves, or effect the other way; inactive means no such curve, though single readings can be large or run the other way.
Valid outcomes are listed here; reply with one: T for active, F for inactive

Compound	Assigned class
CC1CCCC1	F

Fill in: this test's call for O=S1(=O)OCC2C(CO1)C1(Cl)C(Cl)=C(Cl)C2(Cl)C1(Cl)Cl (stereo not drawn) is ___
T

Called result for `CSSC`
F

For `COc1nc(C)nc(NC(=O)NS(=O)(=O)c2ccccc2Cl)n1` , what call appears in the results of this test?
F

Outcome? `O=C(Cl)c1ccccc1F`
F

Write down the call the test reported for this compound. Item: `CO/N=C(/C1=NOCCO1)c1ccccc1Oc1ncnc(Oc2ccccc2Cl)c1F`
T

Given `O.O.O.O=C([O-])[C@H]([O-])[C@@H]([O-])C(=O)[O-].O=C([O-])[C@H]([O-])[C@@H]([O-])C(=O)[O-].[K+].[K+].[Sb+3].[Sb+3]` , state the outcome it received in this test.
T

Dear all, I need the recorded test outcome for `CCCCN(CCCC)C(=S)[S-].CCCCN(CCCC)C(=S)[S-].[Ni+2]` , thank you.
F

###

Measurement description: A CellTox Green Cytotoxicity Assay to monitor cytotoxicity in HEK293 cells - 40 hour (AID 1224871); note: % is set by controls: 0 for no effect and ±100 for the full control effect; nearly all actives have a fitted effect of over 45% in size
Run parameters: CellTox Green fluorescence; series mostly up to 76.8 µM
Inconclusive results are not listed. Calls of active or inactive are those of the source. Calls come from the whole dose curve; as a rule, active = well fitted activation curve with a large enough effect in the repeat runs; inconclusive = weak or mixed curves; inactive = flat fitted curve, though single readings scatter.
Give one outcome, nothing more. List: active, inactive

Lab log entry: `CCCCON=O` — outcome as called in the assay?
inactive

Returns: the outcome recorded for `O.O.O.O.O.O.O=S(=O)([O-])[O-].[Ni+2]` in this assay.
inactive

Per the records of this test, what outcome belongs to CCCCC(CC)COC(=O)c1ccccc1C(=O)OCC(CC)CCCC (stereo unspecified) ?
inactive

###

Test target: Glucocorticoid receptor (Homo sapiens) (UniProt P04150)
Sequence (P04150 whole entry, looked up): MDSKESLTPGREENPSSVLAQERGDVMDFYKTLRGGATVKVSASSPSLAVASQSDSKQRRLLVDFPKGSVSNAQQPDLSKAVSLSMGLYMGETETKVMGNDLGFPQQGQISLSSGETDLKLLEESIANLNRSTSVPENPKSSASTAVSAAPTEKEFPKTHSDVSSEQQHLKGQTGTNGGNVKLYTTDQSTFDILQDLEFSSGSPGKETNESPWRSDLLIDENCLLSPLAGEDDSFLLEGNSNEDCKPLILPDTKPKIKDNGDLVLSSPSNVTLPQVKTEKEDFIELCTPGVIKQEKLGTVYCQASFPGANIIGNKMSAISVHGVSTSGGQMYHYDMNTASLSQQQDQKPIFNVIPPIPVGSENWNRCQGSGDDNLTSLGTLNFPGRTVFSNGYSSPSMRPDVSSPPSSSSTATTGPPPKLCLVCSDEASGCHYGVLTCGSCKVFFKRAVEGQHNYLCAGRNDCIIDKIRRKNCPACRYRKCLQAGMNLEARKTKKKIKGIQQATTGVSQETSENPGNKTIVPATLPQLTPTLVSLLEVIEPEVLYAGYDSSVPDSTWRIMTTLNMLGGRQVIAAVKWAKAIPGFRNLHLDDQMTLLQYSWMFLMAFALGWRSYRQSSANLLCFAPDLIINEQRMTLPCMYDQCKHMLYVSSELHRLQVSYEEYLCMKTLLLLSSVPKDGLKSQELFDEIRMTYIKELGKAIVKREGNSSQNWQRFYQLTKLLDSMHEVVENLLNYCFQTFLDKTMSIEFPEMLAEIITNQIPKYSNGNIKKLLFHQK
Measurement description: qHTS assay to identify small molecule antagonists of the glucocorticoid receptor (GR) signaling pathway (AID 720692)
Run parameters: GR-bla HeLa, beta-lactamase FRET ratio, dexamethasone-stimulated, 18 h; series mostly up to 58.5 µM
Records with an inconclusive call do not appear. The source made the active and inactive calls. Calls come from the whole dose curve; as a rule, active = well fitted inhibition curve with a large enough effect in the signal ratio in the repeat runs (not every such curve was filed as active); inconclusive = weak or mixed curves, or effect the other way; inactive = no such curve, though single readings can be large or run the other way; the % refers to the signal ratio.
The reply should name one outcome from yes (1) = active, no (0) = inactive

Molecule	Assigned class
Clc1ccc(C(c2ccc(Cl)cc2)C(Cl)Cl)cc1	yes (1)
CC(C)c1c(CN(C)C(C)Cc2ccccc2)n(C)n(-c2ccccc2)c1=O (stereo unspecified)	no (0)
CCN(CC)C(=O)N[C@@H]1C=C2c3cccc4[nH]cc(c34)C[C@@H]2N(C)C1	no (0)
S=C=Nc1ccccc1	no (0)
CCN(CC)Cc1nccn1-c1ccc([N+](=O)[O-])cc1C(=O)c1ccccc1Cl	no (0)
O=NN(CCO)CCO	no (0)
O=c1c2ccccc2c(=O)c2c1cc(Cl)c1[nH]c3c([nH]c12)c(Cl)cc1c(=O)c2ccccc2c(=O)c13	no (0)
O=C(O)CCCCCCNC1c2ccccc2CCc2ccccc21	no (0)
COC(=O)c1cc(Oc2ccc(Cl)cc2Cl)ccc1[N+](=O)[O-]	no (0)
NC1CCC(CC2CCC(N)CC2)CC1 (stereo unspecified)	no (0)

Give the logged outcome of this assay for the following molecule: `c1cc[n+]2c(c1)-c1cccc[n+]1CC2`
no (0)

Could you kindly confirm the outcome this assay logged for `Cc1ccc2cc3c(ccc4ccccc43)c3c2c1CC3` ?
no (0)

Entry CCO/N=C(\CC)C1=C(O)CC(c2c(C)cc(C)cc2C)CC1=O (stereo unspecified) : call = ?
no (0)

In this assay, the call recorded for `CCC1(CC)C(=O)N=C(O)NC1=O` was what?
no (0)

GET /call?item= `Cc1cccc(Cc2cnc[nH]2)c1C` returns the recorded outcome of this test.
no (0)

Name the outcome recorded for `CCCCc1ccccc1` in the assay.
no (0)

What outcome does the record of this test show for `CNC(C)(C)Cc1ccccc1` ?
no (0)

For `CCN(CC)C(=S)S` , what call appears in the results of this test?
no (0)

Hello, I am checking results. What call was entered for `CCOP(=O)(OCC)Oc1nc(Cl)c(Cl)cc1Cl` ?
yes (1)

What is the recorded call for this molecule in the test? `NC(=O)C(Cl)Cl`
no (0)

Could you kindly confirm the outcome this assay logged for `COc1nc(C)nc(NC(=O)NS(=O)(=O)c2ccccc2Cl)n1` ?
no (0)

Answer briefly: the call reported for CCC(C)Nc1c([N+](=O)[O-])cc(C(C)(C)C)cc1[N+](=O)[O-] (stereo unspecified) in this assay.
no (0)
